systemUnderTest: human F508del-CFTR (Homo sapiens, UniProt P13569, DEL508-508)
Sequence (P13569 with tags, fused parts or gaps DEL508-508): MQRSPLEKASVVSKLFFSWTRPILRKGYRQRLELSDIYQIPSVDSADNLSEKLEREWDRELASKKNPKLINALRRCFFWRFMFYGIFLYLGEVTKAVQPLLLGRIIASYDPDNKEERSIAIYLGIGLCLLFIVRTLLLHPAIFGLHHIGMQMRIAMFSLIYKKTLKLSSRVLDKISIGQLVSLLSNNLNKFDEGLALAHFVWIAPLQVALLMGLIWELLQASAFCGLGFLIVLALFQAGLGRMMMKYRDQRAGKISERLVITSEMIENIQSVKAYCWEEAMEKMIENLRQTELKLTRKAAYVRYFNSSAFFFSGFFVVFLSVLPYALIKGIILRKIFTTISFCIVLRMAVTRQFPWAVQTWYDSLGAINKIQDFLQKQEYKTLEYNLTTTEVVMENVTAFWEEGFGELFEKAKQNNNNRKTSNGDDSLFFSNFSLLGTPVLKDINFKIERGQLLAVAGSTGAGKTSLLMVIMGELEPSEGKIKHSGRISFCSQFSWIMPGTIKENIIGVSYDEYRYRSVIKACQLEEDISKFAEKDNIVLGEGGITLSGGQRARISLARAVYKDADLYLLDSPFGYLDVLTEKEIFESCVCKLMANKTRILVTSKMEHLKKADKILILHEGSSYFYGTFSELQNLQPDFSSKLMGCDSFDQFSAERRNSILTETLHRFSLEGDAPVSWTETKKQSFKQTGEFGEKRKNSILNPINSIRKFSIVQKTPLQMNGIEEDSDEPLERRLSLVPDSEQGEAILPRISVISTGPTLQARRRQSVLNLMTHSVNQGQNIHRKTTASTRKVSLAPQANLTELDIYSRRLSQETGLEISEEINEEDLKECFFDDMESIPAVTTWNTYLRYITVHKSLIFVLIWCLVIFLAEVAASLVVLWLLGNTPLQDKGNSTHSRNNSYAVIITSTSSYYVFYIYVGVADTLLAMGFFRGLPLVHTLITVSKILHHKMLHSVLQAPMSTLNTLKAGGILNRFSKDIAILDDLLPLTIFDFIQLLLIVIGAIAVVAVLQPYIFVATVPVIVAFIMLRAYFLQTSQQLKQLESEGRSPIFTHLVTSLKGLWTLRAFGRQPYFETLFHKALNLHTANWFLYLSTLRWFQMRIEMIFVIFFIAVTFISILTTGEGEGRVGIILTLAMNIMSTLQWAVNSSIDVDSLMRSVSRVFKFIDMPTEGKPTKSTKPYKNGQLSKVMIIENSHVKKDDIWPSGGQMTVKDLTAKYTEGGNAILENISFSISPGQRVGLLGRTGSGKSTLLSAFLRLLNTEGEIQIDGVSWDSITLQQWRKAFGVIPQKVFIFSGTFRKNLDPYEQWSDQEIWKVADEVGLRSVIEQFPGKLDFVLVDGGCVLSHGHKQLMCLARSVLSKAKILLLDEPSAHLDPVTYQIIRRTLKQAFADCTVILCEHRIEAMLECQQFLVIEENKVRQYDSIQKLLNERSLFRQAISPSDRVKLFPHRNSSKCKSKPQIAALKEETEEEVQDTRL
experimentSummary: F508del-CFTR cell surface expression (corrector activity), DiscoveRx ß-galactosidase complementation chemiluminescence assay in recombinant U2OS cell line
recordedConditions: EC50, F508del-CFTR cell surface expression, U2OS cells, 16h compound incubation; geomean of several measurements
Give measured EC50 for each item. Keep answers brief.
The figure you give is taken to be in nM; do not add the unit.

Entry CCOCC[C@@H]1C(=O)N[C@H](Cc2ccccc2)COc2ccc3cnc(C)cc3c2C(=O)N[C@H](C(=O)NCCn2nnc(C3CC3)n2)CC(=O)N(C)[C@@H](CC(C)C)C(=O)N1C : reported EC50 = ?
334

Name the reported EC50 value associated with the compound COc1noc(CCNC(=O)[C@@H]2CC(=O)N(C)[C@@H](CC(C)C)C(=O)N(C)C3(CC(F)(F)C3)C(=O)N[C@H](Cc3ccccc3)COc3ccc4ncc(F)cc4c3C(=O)N2)n1
302

Record request: EC50 value, item Cc1cc2c3c(ccc2cn1)OC[C@@H](Cc1ccccc1)NC(=O)[C@@H](Cc1nc(C(F)(F)F)no1)N(C)C(=O)[C@H](CC(C)C)N(C)C(=O)C[C@@H](C(=O)NCCn1nnc(C2CC2)n1)NC3=O
34

Fill blank: measured EC50 of the compound COc1nc(C)cc2c1C(=O)N[C@H](C(=O)NCCc1cc(C)no1)CC(=O)N(C)[C@@H](CC(C)C)C(=O)N(C)[C@H](C(C)(C)C)C(=O)N[C@H](Cc1ccccc1)CO2 is ____.
337

# input compound: CC(C)C[C@H]1C(=O)N(C)[C@@H](Cc2nc(C(F)(F)F)no2)C(=O)N[C@H](Cc2ccccc2)COc2cnc3ccc(F)cc3c2C(=O)N[C@H](C(=O)NCCc2noc(C3CC3)n2)CC(=O)N1C ; wanted: its EC50
127

----------
systemUnderTest: human F508del-CFTR (Homo sapiens, UniProt P13569, DEL508-508)
experimentSummary: F508del-CFTR cell surface expression (corrector activity), DiscoveRx ß-galactosidase complementation chemiluminescence assay in recombinant U2OS cell line;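 further: U2OS cells co-expressing ProLink-tagged F508del-CFTR and a membrane-anchored enzyme acceptor, where more surface CFTR restores β-galactosidase activity measured by chemiluminescence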
recordedConditions: EC50, F508del-CFTR cell surface expression, U2OS cells, 16h compound incubation; geomean values
readoutKind: pEC50
Scale: negative log10 of molar concentration, which is what pEC50 denotes.

Request the reported pEC50 associated with COc1cccc(CCNC(=O)[C@@H]2CC(=O)N(C)[C@@H](CC(C)C)C(=O)N(C)C3(CC3)C(=O)N[C@H](Cc3ccccc3)COc3nc4ccccn4c3C(=O)N2)c1
6.35

Give its pEC50 value. Item: COc1cccc(CCNC(=O)[C@@H]2CC(=O)N(C)[C@@H](CC(C)C)C(=O)N(C)C3(CC3)C(=O)N[C@H](Cc3ccccc3)COc3ccc4cnccc4c3C(=O)N2)c1
6.59

Entry COc1cccc(CCNC(=O)[C@@H]2CC(=O)N(C)[C@@H](CC(C)C)C(=O)N3CCOC[C@H]3C(=O)N[C@H](Cc3ccccc3)COc3cnc4ccccc4c3C(=O)N2)c1 : reported pEC50 = ?
6.25

What measured pEC50 goes with [2H]C([2H])([2H])Oc1nc(C)cc2c1C(=O)N[C@H](C(=O)NCCc1nc(C3CC3)no1)CC(=O)N(C)[C@@H](CC(C)C)C(=O)N1CCCC[C@@H]1C(=O)N[C@H](Cc1ccccc1)CO2 ?
6.46

Given the compound CC(C)C[C@H]1C(=O)N2CCCC[C@H]2C(=O)N[C@H](Cc2ccccc2)COc2cnc3c(F)cccc3c2C(=O)N[C@H](C(=O)NCCc2cc(C3CC3)on2)CC(=O)N1C , what is its reported pEC50?
6.27

Which value of pEC50 has been reported for COc1cccc(CCNC(=O)[C@@H]2CC(=O)N(C)[C@@H](CC(C)C)C(=O)N(C)C3(CC3)C(=O)N[C@H](Cc3ccccc3)COc3ccc4ncccc4c3C(=O)N2)c1 in the records?
6.51

Need pEC50 of COc1cccc(CCNC(=O)[C@@H]2CC(=O)N(C)[C@@H](CC(C)C)C(=O)N(C)C3(CC3)C(=O)N[C@H](Cc3ccccc3)COc3cnc4c(F)cccc4c3C(=O)N2)c1 , thanks.
6.60

Need pEC50 of Cc1cc(CCNC(=O)[C@@H]2CC(=O)N(C)[C@@H](CC(C)C)C(=O)N(C)C3(CC3)C(=O)N[C@H](Cc3ccccc3)COc3ccc4ccccc4c3C(=O)N2)on1 , thanks.
6.54

Need pEC50 of CC(C)C[C@H]1C(=O)N2CCCC[C@H]2C(=O)N[C@H](Cc2ccccc2)COc2cnc3c(F)cccc3c2C(=O)N[C@H](C(=O)NCCc2ccc(-n3nccn3)cc2)CC(=O)N1C , thanks.
6.69

Query: pEC50; subject: CC(C)C[C@H]1C(=O)N2CCCC[C@@H]2C(=O)N[C@H](Cc2ccccc2)COc2cnc3ccc(F)cc3c2C(=O)N[C@H](C(=O)NCCc2cc(C(F)(F)F)no2)CC(=O)N1C
6.94
